What PBM binding z-score was measured for each of the following?
Tested on: FXR:RXRa (NR concentration 270 nM, RXRa partner concentration 90 nM)
Test: PBM binding z-score (relative to random genomic background probes); higher = stronger binding; sequences stand for … in GC…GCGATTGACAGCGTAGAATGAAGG

Examples with answers:
[
  {
    "primary_sequence": "TGAATGAGGTTAAAGATCAGGGCACGTGGCGTCG",
    "value_observed": 2.95
  },
  {
    "primary_sequence": "TCTTGTAGATCAAGCAGGTTAAGAACGCCTGAGT",
    "value_observed": 0.558
  },
  {
    "primary_sequence": "CCTACTGGGCCATAAGGTCATTGATATCAACGTT",
    "value_observed": 3.03
  }
]

List the reported PBM binding z-score of each sequence below.
1. CGAACTAGGTCAAAGGTCAAAGTCGAGCCAACCA
2. CGAACTAGGTCAAGGTCAGTGAATCTCCGCACGC
3. ACTCGGAGGACAAAGGTCAAAGCTACGCCAGTGA

[8.28, 4.73, 6.13]

###

System: VDR:RXRa (NR concentration 270 nM, RXRa partner concentration 90 nM)
Assay: PBM binding z-score (relative to random genomic background probes); higher = stronger binding; sequences stand for … in GC…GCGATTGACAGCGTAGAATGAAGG
Would you mind telling me the reported PBM binding z-score of each entry?

Example sequences with recorded PBM binding z-score:
[
  {
    "primary_sequence": "TAGCCTAGGTCAGATCGGGCCAGAATACGCTATA",
    "property_measured": "PBM binding z-score",
    "value_observed": 0.522
  },
  {
    "primary_sequence": "CAAACTAGGTCACAGAGGCCAAAGTCCGTGCGTA",
    "property_measured": "PBM binding z-score",
    "value_observed": 6.5
  },
  {
    "primary_sequence": "AATACAGGGTCATCGTAGGGCAGAGTACGCACAG",
    "property_measured": "PBM binding z-score",
    "value_observed": 5.71
  },
  {
    "primary_sequence": "TAGCCTAGGTCATGGGCCAGTATCCCACGCGAAC",
    "property_measured": "PBM binding z-score",
    "value_observed": 1.76
  },
  {
    "primary_sequence": "TAGCCTAGGTCATGGGGCAGTATACCACGCGAAC",
    "property_measured": "PBM binding z-score",
    "value_observed": 2.45
  },
  {
    "primary_sequence": "TCTTCTAGATCAATAGAGGTTAAGAAAGTGCGCT",
    "property_measured": "PBM binding z-score",
    "value_observed": 1.94
  },
  {
    "primary_sequence": "AATGCAGGGTCACTAGGCCAGAGTAGGTACGAAT",
    "property_measured": "PBM binding z-score",
    "value_observed": 4.04
  },
  {
    "primary_sequence": "ACAGACAGGTGACGAAGGTAACTCAGGCTATCAT",
    "property_measured": "PBM binding z-score",
    "value_observed": 0.352
  },
  {
    "primary_sequence": "TCATAGAGGTAAACAGGTGAAAGTCCGTAAGTTA",
    "property_measured": "PBM binding z-score",
    "value_observed": 0.83
  },
  {
    "primary_sequence": "ATCTCTCGGTAACCAAGTTCAGTGAATGCCGAAC",
    "property_measured": "PBM binding z-score",
    "value_observed": 2.72
  }
]

// input: 6 sequences below; output: PBM binding z-score for each
1. AGAATGATGTTAAGATCAGGGAAACAGAATACAT
2. TTATCAAGGTGAGCTGAGGTCGTTGATCCAACTC
3. CCAGACAGGTGAGAAGGTAAGTCAGCCTCGATTA
4. CCCTACGGGTCACTGACAGGTTATAGCATTTGGA
5. AGACTGAGGTTAAGATCAGGGAAACAGAATACAT
6. GATACAGGGTCAGCTAGAGGCCAGAGTGTGGAAA

1: -0.114; 2: 3.93; 3: -0.106; 4: 3.56; 5: 0.967; 6: 3.39

Take each entry in turn and give its PBM binding z-score.
1. ATCGAAGGGTCGACGAGGTGAGTATACACCGTTT
2. GCTTGTCGATCAAGGTTAAGAAAGACTAAGCTAA
3. TCTGCTAGGTCAACGATGGTAAGCTAATCTGCTA

1. 4.01
2. -0.0633
3. 1.82

For every listed record, write down its PBM binding z-score.
1. TGAATGAGGTTAAAAATCAGGGAACGTGGCGTCG
2. CGAACTAGGTCTGAACAGGACAGTGAAGGATGAT
3. TGTCAAAGTTCGAAGGTAACGTAAGTATCCACAC
4. ACTTACGGGTTAACGAGGTTATAGCACGCGTATA

1. 0.855
2. -0.557
3. 1.78
4. 6.31
